Cited source: ChEMBL document CHEMBL1153533

test system: Liver; experiment: Drug level in rat liver assessed as nucleoside triphosphate level at 1 mg/kg, sc after 24 hrs; format: ADME, organism-based; design: dose 1 mg/kg, route subcutaneous; settings: in vivo, read-out: Drug uptake
ASSAY_READOUT: concentration (nM)
Numeric only. Scale: nM

[Q] Recorded concentration of `CCCC(CCC)COC(=O)[C@H](C)NP(=O)(O)OC[C@H]1O[C@@H](n2ccc(N)nc2=O)[C@](C)(O)[C@@H]1O` , please.
[A] 2900

###

experiment: Drug level in hamster liver assessed as nucleoside triphosphate level at 1 mg/kg, sc after 24 hrs; format: ADME, organism-based; set-up: dose 1 mg/kg, route subcutaneous; conditions: cricetinae, in vivo, read-out: Drug uptake
ASSAY_READOUT: concentration (µM)
Numeric only. Scale: µM

[Q] Recorded concentration of `CCCC(CCC)COC(=O)[C@H](C)NP(=O)(O)OC[C@H]1O[C@@H](n2ccc(N)nc2=O)[C@](C)(O)[C@@H]1O` , please.
[A] 6

###

assay: Selectivity index, ratio of CC50 for human HBI10A cells to EC50 for HCV infected in human HBI10A cells
ASSAY_READOUT: Ratio CC50/EC50
Quick one: just the number, no unit, thanks!

INSERT INTO measurements (compound, assay_readout, quantitative_result) VALUES
  ('CCOC(=O)[C@H](C)NP(=O)(OC[C@H]1O[C@@H](n2ccc(N)nc2=O)[C@](C)(O)[C@@H]1O)Oc1ccccc1C (stereo not given in full)', 'Ratio CC50/EC50', 50);

[Q] Recorded Ratio CC50/EC50 of CCOC(=O)[C@H](C)NP(=O)(OC[C@H]1O[C@@H](n2ccc(N)nc2=O)[C@](C)(O)[C@@H]1O)Oc1cc(C)c(Cl)cc1C(C)C (stereo not given in full) , please.
[A] 47

###

assay: Cytotoxicity against human HBI10A cells
ASSAY_READOUT: CC50

[Q] Recorded CC50 of CCCC[C@H](NP(=O)(OC[C@H]1O[C@@H](n2ccc(N)nc2=O)[C@](C)(O)[C@@H]1O)Oc1ccc(Cl)cc1)C(=O)OCC (mixture of isomers) , please.
[A] > 20 µM

[Q] Recorded CC50 of CCOC(=O)[C@H](Cc1c[nH]c2ccccc12)NP(=O)(OC[C@H]1O[C@@H](n2ccc(N)nc2=O)[C@](C)(O)[C@@H]1O)Oc1ccc(Cl)cc1 (single isomer, unassigned) , please.
[A] > 50 µM

[Q] Recorded CC50 of CCCCOC(=O)[C@H](C)NP(=O)(OC[C@H]1O[C@@H](n2ccc(N)nc2=O)[C@](C)(O)[C@@H]1O)Oc1cccc2ccccc12 (stereo partly drawn) , please.
[A] 9 µM

[Q] Recorded CC50 of CCCCOC(=O)[C@H](C)NP(=O)(OC[C@H]1O[C@@H](n2ccc(N)nc2=O)[C@](C)(O)[C@@H]1O)Oc1ccccc1Cl (stereo partly drawn) , please.
[A] > 20 µM

[Q] Recorded CC50 of `CCCC(CCC)COC(=O)[C@H](C)NP(=O)(O)OC[C@H]1O[C@@H](n2ccc(N)nc2=O)[C@](C)(O)[C@@H]1O` , please.
[A] > 100 µM

[Q] Recorded CC50 of COC(=O)[C@@H](C)NP(=O)(OC[C@H]1O[C@@H](n2ccc(N)nc2=O)[C@](C)(O)[C@@H]1O)Oc1ccc(Cl)cc1 (mixture of isomers) , please.
[A] > 20 µM
